biological target: MMP-2 (Homo sapiens, UniProt P08253); construct: purchased Abchem (so in the source); assay: MMP2 Inhibitor Screening Assay Kit (ab139446), colorimetric thiopeptide substrate, OD412; format: biochemical; details: remaining enzyme activity; T-05~20 at 10 uM; read-out: MMP-2 (%) (enzyme activity, high concentration)
Sequence (P08253 110-660): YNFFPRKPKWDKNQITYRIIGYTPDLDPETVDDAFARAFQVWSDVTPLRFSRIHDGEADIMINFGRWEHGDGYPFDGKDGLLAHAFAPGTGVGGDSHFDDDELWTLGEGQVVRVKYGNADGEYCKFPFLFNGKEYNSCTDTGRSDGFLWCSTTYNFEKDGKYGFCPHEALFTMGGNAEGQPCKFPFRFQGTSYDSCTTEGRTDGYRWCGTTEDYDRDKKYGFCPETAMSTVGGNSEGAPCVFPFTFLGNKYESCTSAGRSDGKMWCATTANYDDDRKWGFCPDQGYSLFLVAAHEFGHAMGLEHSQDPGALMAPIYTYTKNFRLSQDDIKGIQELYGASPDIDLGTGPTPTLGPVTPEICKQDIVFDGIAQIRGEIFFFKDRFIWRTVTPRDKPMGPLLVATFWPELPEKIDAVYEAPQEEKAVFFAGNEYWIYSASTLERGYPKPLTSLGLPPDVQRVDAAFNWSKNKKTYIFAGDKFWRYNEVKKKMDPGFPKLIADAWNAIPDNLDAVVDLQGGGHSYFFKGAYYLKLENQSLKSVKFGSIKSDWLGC
metric: remaining activity at 10 µM (%)

Examples with answers:
CC(C)C(NS(=O)(=O)c1ccc(C(C)(C)C)cc1)C(=O)NO (centres unmarked) = 100
O=C(NO)C(Cc1ccccc1)NS(=O)(=O)c1ccc2ccccc2c1 (centres unmarked) = 6.2
CC(C)CC(NS(=O)(=O)c1ccc(C(C)(C)C)cc1)C(=O)NO (centres unmarked) = 28.1

I. Cc1cc(C)c(S(=O)(=O)NC(Cc2ccccc2)C(=O)NO)c(C)c1 (centres unmarked)
II. Cc1cc(C)c(S(=O)(=O)NC(C(=O)NO)C(C)C)c(C)c1 (centres unmarked)
Task: Could you tell me which of these two has the smaller remaining activity at 10 µM figure? First: I Second: II Provide the label of your selected option as the answer.
Output: II

====

biological target: MMP-2 (Homo sapiens); construct: purchased Abchem (so in the source); assay: MMP2 Inhibitor Screening Assay Kit (ab139446), colorimetric thiopeptide substrate, OD412; format: biochemical; conditions: inhibition; T-23~34 at 0.5 uM; read-out: MMP-2 (%) (inhibitory efficacy, high concentration)
metric: inhibition at 0.5 µM (%)

Examples with answers:
CC(=O)c1ccc(S(=O)(=O)N2CCCC2C(=O)NO)cc1 (stereo not drawn) = 37.8
CC(C)(C)c1ccc(S(=O)(=O)N2CCCC2C(=O)NO)cc1 (stereo not drawn) = 0

I. O=C(NO)C1CCCCN1S(=O)(=O)c1ccc(C23CC4CC(CC(C4)C2)C3)cc1 (stereo not drawn)
II. CC(=O)Nc1ccc(S(=O)(=O)N2CCCCC2C(=O)NO)cc1 (stereo not drawn)
III. CCCc1ccc(S(=O)(=O)N2CCCC2C(=O)NO)cc1 (stereo not drawn)
IV. O=C(NO)C1CCCN1S(=O)(=O)c1ccc(C23CC4CC(CC(C4)C2)C3)cc1 (stereo not drawn)
Task: Hey, can you sort those compounds up there by inhibition at 0.5 µM, smallest first? The response must list the labels following the requested ordering.
Output: I, IV, III, II
(I: 0%, IV: 7.6%, III: 26.3%, II: 38.3%)

====

target: MMP-9 (Homo sapiens); construct: purchased Abchem (so in the source); assay: MMP9 Inhibitor Screening Assay Kit (ab139448), colorimetric thiopeptide substrate, OD412; assay type: biochemical; conditions: remaining enzyme activity, untreated group = 100%; compound at 50 nM; n=2
Sequence (P14780 94-707): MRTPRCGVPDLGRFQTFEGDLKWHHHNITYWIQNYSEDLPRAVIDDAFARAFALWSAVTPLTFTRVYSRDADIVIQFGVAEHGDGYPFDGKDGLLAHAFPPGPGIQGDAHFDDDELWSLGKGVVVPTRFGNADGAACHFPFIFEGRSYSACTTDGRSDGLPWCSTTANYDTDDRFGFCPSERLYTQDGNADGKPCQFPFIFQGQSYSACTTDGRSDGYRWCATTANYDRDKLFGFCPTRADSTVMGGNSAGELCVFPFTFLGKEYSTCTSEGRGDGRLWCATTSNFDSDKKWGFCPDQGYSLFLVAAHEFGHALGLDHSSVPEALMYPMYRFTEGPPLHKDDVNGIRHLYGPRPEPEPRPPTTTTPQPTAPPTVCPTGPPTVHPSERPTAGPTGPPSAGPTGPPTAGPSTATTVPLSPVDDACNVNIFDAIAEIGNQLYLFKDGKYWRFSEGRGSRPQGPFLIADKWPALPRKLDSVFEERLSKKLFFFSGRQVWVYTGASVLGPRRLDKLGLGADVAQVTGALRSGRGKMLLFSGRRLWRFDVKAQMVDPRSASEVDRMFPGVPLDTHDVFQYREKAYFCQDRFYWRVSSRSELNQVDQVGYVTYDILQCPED
metric: remaining activity at 0.05 µM (%)

CC(C)CC(NS(=O)(=O)c1ccc(C(C)(C)C)cc1)C(=O)NO (stereo not drawn) [T-13] = 100
O=C(NO)C1CCCCN1S(=O)(=O)c1ccc(C23CC4CC(CC(C4)C2)C3)cc1 (stereo not drawn) [T-23] = 100
Cc1cc(C)c(S(=O)(=O)NC(CC(C)C)C(=O)NO)c(C)c1 (stereo not drawn) [T-15] = 100

a. O=C(NO)C1CCCN1S(=O)(=O)c1ccc(C23CC4CC(CC(C4)C2)C3)cc1 (stereo not drawn) [T-32]
b. O=C(NO)C1CCCCN1S(=O)(=O)c1ccc(-c2ccccc2)cc1 (stereo not drawn) [T-02]
Task: Recorded remaining activity at 0.05 µM values differ for a and b ; which one is higher? Provide the label of your selected option as the answer.
Output: a
